- protocol_summary: Plasma levels of Compound 2 after intravenous or topical administration to rats (LC/MS/MS)
- Assay type: in vivo
- conditions_used: Lewis, plasma; rat; over 45 minutes; dose and route not stated
observation_type: concentration at 45 min

>  <compound>
COc1cc(CCNC[C@H](O)c2ccc(O)c(O)c2)cc(OC)c1OC.Cl (single isomer, unassigned) [Compound 2, hydrochloride]

>  <reported_value>
~6 ng/mL

$$$$

* * *

- protocol_summary: Tissue distribution of Compound 2 in heart, lung and spleen after topical delivery
- Format: in vivo
- conditions_used: rat, heart, topical, 10 mg/kg, 24 hours after topical 10 mg/kg, single animals 1-5
observation_type: concentration at 24 h

>  <molecule>
COc1cc(CCNC[C@H](O)c2ccc(O)c(O)c2)cc(OC)c1OC.Cl (single isomer, unassigned) [Compound 2, hydrochloride]

>  <reported_value>
< 400 ng/g

$$$$
